B1: Subtilisin-chymotrypsin inhibitor-2A, P01053 (parent)
chain: MSSVEKKPEGVNTGAGDRHNLKTEWPELVGKSVEEAKKVILQDKPEAQIIVLPVGTIVTMEYRIDRVRLFVDKLDNIAQVPRVG

variants of: B1; settings: Hordeum vulgare; pH 3.5; Thermal; DSC; MES 450 mM; reversible: yes; structure 2CI2; whole UniProt chain shown
MEASURE_NAME: unfolding enthalpy (calorimetric)
Provide a numeric answer, followed by its unit.

Input: What does the data say about its unfolding enthalpy (calorimetric)? Entry: MSSVEKKPEGVNTGAGDRHNLKTEWPELVGKSVEEAKKVILQDKPEAQIIVLPVGTIVTMEYRIDRARLFVDKLDNIAQVPRVG [V67A]
Output: 37.3 kcal/mol

Input: Please give the measured unfolding enthalpy (calorimetric) for this variant: MSSVEKKPEGVNTGAGDRHNLKTEWPELVGKSVEEAKKVILQDKPEAQIIVLPVGTIVTMEYRIDRVRLFVDKLDNAAQVPRVG [I77A]
Output: 41 kcal/mol

Input: Recorded unfolding enthalpy (calorimetric) of MSSVEKKPEGVNTGAGDRHNLKTEWPELVGKSVEEAKKVVLQDKPEAQIIVLPVGTIVTMEYRIDRVRLFVDKLDNIAQVPRVG [I40V] , please.
Output: 61.5 kcal/mol

Input: Which unfolding enthalpy (calorimetric) reading was recorded for the variant MSSVEKKPEGVNTGAGDRHNLKTEWPELVGKSVEEAKKVILQDKPEAQAIVLPVGTIVTMEYRIDRVRLFVDKLDNIAQVPRVG [I49A] ?
Output: 44.9 kcal/mol

Input: Look up unfolding enthalpy (calorimetric) for this variant: MSSVEKKPEGVNTGAGDRHNLKTEWPELVGKSVEEAKKVILQDKPEAQVIVLPVGTIVTMEYRIDRVRLFVDKLDNIAQVPRVG [I49V]
Output: 62.4 kcal/mol

Input: Item under review: MSSVEKKPEGVNTGAGDRHNLKTEWPELVGKSVEEAKKVILQDKPEAQIIVLPVGTIVTMEYRIDRVRAFVDKLDNIAQVPRVG [L69A] . Reported unfolding enthalpy (calorimetric)?
Output: 46.7 kcal/mol
